The origin of these recorded values is patent US20180258158A1.

- measurement-target: T1, human serum albumin (HSA), full length (human, UniProt P02768 25-609)
- T1 construct: mature; Immobilized on CM5 chip (SPR) or coated on plates (ELISA)
- T1 sequence (P02768 25-609): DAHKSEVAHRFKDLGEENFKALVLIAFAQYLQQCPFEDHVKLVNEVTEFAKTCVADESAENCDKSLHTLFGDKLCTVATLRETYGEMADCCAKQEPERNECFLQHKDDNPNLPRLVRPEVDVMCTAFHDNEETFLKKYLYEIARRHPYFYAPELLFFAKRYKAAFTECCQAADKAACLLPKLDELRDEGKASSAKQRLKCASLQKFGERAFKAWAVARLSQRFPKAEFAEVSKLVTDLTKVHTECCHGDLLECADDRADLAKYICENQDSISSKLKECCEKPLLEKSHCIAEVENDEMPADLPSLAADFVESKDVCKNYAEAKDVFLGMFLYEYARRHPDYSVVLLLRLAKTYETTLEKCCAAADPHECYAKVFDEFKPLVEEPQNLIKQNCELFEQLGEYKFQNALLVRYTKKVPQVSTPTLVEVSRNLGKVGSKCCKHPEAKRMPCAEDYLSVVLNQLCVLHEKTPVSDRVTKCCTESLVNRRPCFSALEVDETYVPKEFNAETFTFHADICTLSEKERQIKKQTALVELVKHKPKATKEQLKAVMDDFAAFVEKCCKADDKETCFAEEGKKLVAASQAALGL
- protocol-summary: SPR off-rate, immobilized HSA, 500 nM Adnectin, 25 C
reported-metric: koff (s⁻¹)

binder | output-unit | koff
ADX_6727_B01 (K85S) (designed binder, Full His6-tagged entry) MGVSDVPRDLEVVAATPTSLLISWDAPAVTVRYYRITYGREVQKYSDLGPLYIYQEFTVPGSKSTATISGLKPGVDYTITVYAVTGSGESPASSSPISINYRTEIDKPSQHHHHHH | s⁻¹ | 0.000321
ADX_6727_C01 (K85A) (designed binder, Full His6-tagged entry) MGVSDVPRDLEVVAATPTSLLISWDAPAVTVRYYRITYGREVQKYSDLGPLYIYQEFTVPGSKSTATISGLKPGVDYTITVYAVTGSGESPASSAPISINYRTEIDKPSQHHHHHH | s⁻¹ | 0.000297

P. ADX_6727_C07 (R30A/K85S) (designed binder, Full His6-tagged entry) MGVSDVPRDLEVVAATPTSLLISWDAPAVTVRYYRITYGAEVQKYSDLGPLYIYQEFTVPGSKSTATISGLKPGVDYTITVYAVTGSGESPASSSPISINYRTEIDKPSQHHHHHH
Q. ADX_6727_G01 (L41A) (designed binder, Full His6-tagged entry) MGVSDVPRDLEVVAATPTSLLISWDAPAVTVRYYRITYGREVQKYSDLGPAYIYQEFTVPGSKSTATISGLKPGVDYTITVYAVTGSGESPASSKPISINYRTEIDKPSQHHHHHH
Sort P and Q by koff descending and give the first. // caller expects the label of the chosen entry
Q
